- Test system: Escherichia coli
- Assay Procedure: Compound was tested for antibacterial activity against gram negative Escherichia coli CSH2/RK1
- Type: functional
- Run Parameters: Escherichia coli; read-out: MIC
Observation Type: MIC (µg/mL)

# Molecule, Readout Number
records = [
    ("COc1c(N2C[C@@H](CN)[C@H](C)C2)c(F)cc2c(=O)c(C(=O)O)cn(C3CC3)c12.Cl", 0.39),
    ("COc1c(N2C[C@@H](CN)[C@H](C(F)(F)F)C2)c(F)cc2c(=O)c(C(=O)O)cn(C3CC3)c12.Cl (racemic)", 0.78),
    ("COc1c(N2C[C@H](CN)[C@@H](C(F)(F)F)C2)c(F)cc2c(=O)c(C(=O)O)cn(C3CC3)c12.Cl", 3.13),
    ("COc1c(N2C[C@H](CN)[C@H](C(F)(F)F)C2)c(F)cc2c(=O)c(C(=O)O)cn(C3CC3)c12.Cl", 0.2),
]
